Tested on: MDA-MB-231 breast
Assay: NCI tumour cell line growth inhibition, 48 h
Please respond with reported log10 of TGI for every item in the list.
Response schema: value (number) is log10 of TGI in units of µM.

Q: log10 of TGI of "O=S(=O)(Nc1ccc(Br)cc1)c1ccc(-c2cnc(C3CC3)o2)cc1" on MDA-MB-231 breast?
A: 1.25

Q: log10 of TGI of CC12CCC(CC(=O)/C1=C(/Br)I)C2(C)C (stereo unspecified) on MDA-MB-231 breast?
A: 1.25

Q: log10 of TGI of "O=[N+]([O-])c1ccccc1N=Nc1c(O)[nH]c2cccc(C(F)(F)F)c12" on MDA-MB-231 breast?
A: 1.96

Q: log10 of TGI of "Fc1ccc(C(OCCN2CCN(CCCc3ccccc3)CC2)c2ccc(F)cc2)cc1" on MDA-MB-231 breast?
A: 1.05

Q: log10 of TGI of CCN1C(=O)N(CC)C2C1NN=c1s/c(=C\c3ccc(Cl)cc3Cl)c(=O)n12 (stereo unspecified) on MDA-MB-231 breast?
A: 0.68
